# Tested on: ALPK1-dependent NFκB reporter gene activation in HEK293 cells stably expressing an NF-kB reporter (G9 cells)
# run description: NFκB gene reporter alkaline phosphatase assay
# Type: cell-based
# stated conditions: Homo sapiens, HEK293; read-out: NFkB assay IC50
Can you tell me pIC50 for the items I'm about to list?
Scale for pIC50: -log10 of concentration given in mol/L; no unit attached.

*Q* Recorded pIC50 of C#CC(C)(c1ccc(Cl)cc1)c1csc(NC(=O)NCc2ccc(N3CCNCC3)c(F)c2)n1 (stereo not drawn) , please.
*A* 6.17

*Q* Recorded pIC50 of C#CC(C)(c1ccc(Br)cc1)c1csc(NC(=O)N2CC(CO)C2)n1 (stereo not drawn) , please.
*A* 6.14

*Q* Recorded pIC50 of C#CC(C)(c1ccc(Cl)cc1)c1csc(NC(=O)NCC(C)(C)O)n1 (stereo not drawn) , please.
*A* 5.88

Where do the numbers come from? From patent US20240109853A1.
